Reference source: patent US10517889B2

Reported % inhibition of SMAD7 mRNA expression values follow for various substances
System: human SMAD7 mRNA
PROCEDURE SUMMARY: Antisense inhibition of human SMAD7 mRNA expression in Hep3B cells by 3-10-3 cEt gapmers, 10,000 nM, electroporation (Example 2)
Format: cell-based
RECORDED CONDITIONS: Hep3B cells, electroporation with 10,000 nM antisense oligonucleotide, approximately 24 hours, primer probe set RTS5062, relative to untreated control cells
Strand notation (5' to 3'): a small letter for the sugar, then the base; units joined by * are phosphorothioate-linked, units joined directly phosphodiester-linked; [ ] holds rarer units or linkages, { } end groups; capitals alone tell only the bases. k = constrained ethyl (cEt); [5mC] = 5-methylcytosine; d = 2'-deoxy (DNA)

{"SUBSTANCE": "799103 (antisense k[5mC]*k[5mC]*kG*dG*dG*dA*dA*dA*dA*dA*d[5mC]*d[5mC]*dT*kG*kA*kT) [compound 799103]", "EXPERIMENTAL TARGET": "human SMAD7 mRNA", "UNITS SYMBOL": "%", "% inhibition of SMAD7 mRNA expression": 12}
{"SUBSTANCE": "799360 (k[5mC]*k[5mC]*kA*dA*dG*dA*d[5mC]*dA*d[5mC]*dT*dT*d[5mC]*dT*k[5mC]*kT*k[5mC]; antisense) [compound 799360]", "EXPERIMENTAL TARGET": "human SMAD7 mRNA", "UNITS SYMBOL": "%", "% inhibition of SMAD7 mRNA expression": 42}
{"SUBSTANCE": "799131 (antisense k[5mC]*kA*kT*dG*dT*d[5mC]*d[5mC]*d[5mC]*dT*d[5mC]*d[5mC]*d[5mC]*dA*kG*kG*kG) [compound 799131]", "EXPERIMENTAL TARGET": "human SMAD7 mRNA", "UNITS SYMBOL": "%", "% inhibition of SMAD7 mRNA expression": 6}

###

System: human SMAD7 mRNA
PROCEDURE SUMMARY: Antisense inhibition of human SMAD7 mRNA expression in Hep3B cells by 3-10-3 cEt gapmers, 10,000 nM, electroporation (Example 2)
Assay type: cell-based
RECORDED CONDITIONS: Hep3B cells, electroporation with 10,000 nM antisense oligonucleotide, approximately 24 hours, primer probe set RTS5062, relative to untreated control cells
Strand notation (5' to 3'): a small letter for the sugar, then the base; units joined by * are phosphorothioate-linked, units joined directly phosphodiester-linked; [ ] holds rarer units or linkages, { } end groups; capitals alone tell only the bases. k = constrained ethyl (cEt); [5mC] = 5-methylcytosine; d = 2'-deoxy (DNA)

{"SUBSTANCE": "799015 (kG*kG*kG*dA*d[5mC]*dA*dT*d[5mC]*d[5mC]*dA*dT*dA*dA*kG*kA*kG; antisense) [compound 799015]", "% Inhibition, %": 25}
{"SUBSTANCE": "799016 (k[5mC]*kA*kA*dA*d[5mC]*d[5mC]*dT*d[5mC]*dT*d[5mC]*dT*dG*d[5mC]*kT*kG*kG; antisense) [compound 799016]", "% Inhibition, %": 30}
{"SUBSTANCE": "799058 (antisense kA*kG*k[5mC]*dA*dG*dG*d[5mC]*dT*d[5mC]*dG*d[5mC]*dT*dG*k[5mC]*kT*k[5mC]) [compound 799058]", "% Inhibition, %": 0}
{"SUBSTANCE": "798977 (antisense kT*kG*k[5mC]*dT*dT*dG*dG*dA*dT*dT*dT*d[5mC]*dT*kG*k[5mC]*kT) [compound 798977]", "% Inhibition, %": 43}
{"SUBSTANCE": "799182 (antisense kG*kT*kA*dG*dT*dT*dA*dG*dA*dA*dA*dA*dA*kT*kA*kG) [compound 799182]", "% Inhibition, %": 20}
{"SUBSTANCE": "799238 (kA*kA*kT*dG*dG*dA*dA*d[5mC]*dA*dT*dA*dA*dA*k[5mC]*kT*k[5mC]; antisense) [compound 799238]", "% Inhibition, %": 17}
{"SUBSTANCE": "798981 (antisense k[5mC]*kA*kT*dA*d[5mC]*dA*d[5mC]*dT*dG*dT*dG*dT*dT*kT*kG*kG) [compound 798981]", "% Inhibition, %": 58}
{"SUBSTANCE": "799209 (kT*kA*kA*dT*dG*dA*dT*dG*d[5mC]*dT*dT*dA*dT*kA*kA*kA; antisense) [compound 799209]", "% Inhibition, %": 14}
{"SUBSTANCE": "799173 (antisense k[5mC]*kT*kA*dA*dA*d[5mC]*dA*dT*dG*d[5mC]*dT*d[5mC]*dA*kT*kT*kG) [compound 799173]", "% Inhibition, %": 18}
{"SUBSTANCE": "799156 (antisense kG*kA*kA*dA*dG*dA*dA*dG*dA*dG*dT*dT*dA*kG*kG*kT) [compound 799156]", "% Inhibition, %": 37}
{"SUBSTANCE": "799206 (kT*kA*kT*dA*dT*dT*dT*dA*d[5mC]*dA*dA*dG*dT*kA*kA*kT; antisense) [compound 799206]", "% Inhibition, %": 0}
{"SUBSTANCE": "799057 (antisense kG*kG*k[5mC]*dT*d[5mC]*dG*d[5mC]*dT*dG*d[5mC]*dT*d[5mC]*dA*kG*kA*kA) [compound 799057]", "% Inhibition, %": 0}
{"SUBSTANCE": "799040 (kA*kG*k[5mC]*dT*dG*d[5mC]*dT*dG*dG*dG*dA*d[5mC]*d[5mC]*k[5mC]*k[5mC]*kA; antisense) [compound 799040]", "% Inhibition, %": 51}

###

Tested on: human SMAD7 mRNA
PROCEDURE SUMMARY: Antisense inhibition of human SMAD7 mRNA expression in Hep3B cells by 5-10-5 MOE gapmers, single concentration, electroporation, RT-PCR (Example 1, Study 1 and 2)
Format: cell-based
RECORDED CONDITIONS: Study 2, electroporation with 15,000 nM antisense oligonucleotide, 5-10-5 MOE gapmers targeting SEQ ID NO: 1 and 2
Strand notation (5' to 3'): a small letter for the sugar, then the base; units joined by * are phosphorothioate-linked, units joined directly phosphodiester-linked; [ ] holds rarer units or linkages, { } end groups; capitals alone tell only the bases. e = 2'-O-(2-methoxyethyl) (MOE); [5mC] = 5-methylcytosine; d = 2'-deoxy (DNA)
Reported % Inhibition values follow for various substances

{"SUBSTANCE": "771399 (antisense eG*e[5mC]*e[5mC]*e[5mC]*eG*dG*dG*d[5mC]*dA*dG*dG*dA*dG*d[5mC]*dG*eG*e[5mC]*eG*eG*e[5mC]) [compound 771399]", "EXPERIMENTAL TARGET": "human SMAD7 mRNA", "% Inhibition / %": 33}
{"SUBSTANCE": "771862 (antisense eT*e[5mC]*eT*eT*e[5mC]*d[5mC]*d[5mC]*d[5mC]*dA*dG*dA*dA*dA*dA*d[5mC]*eA*eG*e[5mC]*e[5mC]*e[5mC]) [compound 771862]", "EXPERIMENTAL TARGET": "human SMAD7 mRNA", "% Inhibition / %": 10}
{"SUBSTANCE": "771836 (antisense eT*eG*eT*eT*eG*dA*dG*dG*dA*d[5mC]*dT*d[5mC]*d[5mC]*d[5mC]*d[5mC]*eA*eG*e[5mC]*e[5mC]*eA) [compound 771836]", "EXPERIMENTAL TARGET": "human SMAD7 mRNA", "% Inhibition / %": 28}
{"SUBSTANCE": "771718 (antisense eA*eA*eA*eG*eT*dT*d[5mC]*dT*dA*dG*dT*dG*dT*d[5mC]*dT*eA*e[5mC]*eT*e[5mC]*e[5mC]) [compound 771718]", "EXPERIMENTAL TARGET": "human SMAD7 mRNA", "% Inhibition / %": 29}

###

Test system: human SMAD7 mRNA
PROCEDURE SUMMARY: Dose-dependent inhibition of human SMAD7 mRNA expression in Hep3B cells (Example 3, Study 1 and 2)
Assay type: cell-based
RECORDED CONDITIONS: 740 nM, electroporation, approximately 16 hours, Study 2, relative to untreated control cells
Strand notation (5' to 3'): a small letter for the sugar, then the base; units joined by * are phosphorothioate-linked, units joined directly phosphodiester-linked; [ ] holds rarer units or linkages, { } end groups; capitals alone tell only the bases. k = constrained ethyl (cEt); [5mC] = 5-methylcytosine; d = 2'-deoxy (DNA)

{"SUBSTANCE": "830163 (antisense k[5mC]*kA*kA*d[5mC]*dT*dG*dA*dA*dG*dG*dT*dG*dA*k[5mC]*k[5mC]*k[5mC]) [compound 830163]", "% inhibition of SMAD7 mRNA expression, %": 33}
{"SUBSTANCE": "799067 (antisense kG*kG*kA*dT*dG*dA*dA*dA*dA*dT*dA*dA*dT*kT*kG*kG) [compound 799067]", "% inhibition of SMAD7 mRNA expression, %": 5}
{"SUBSTANCE": "799572 (kA*k[5mC]*k[5mC]*dA*dT*d[5mC]*dT*dA*dA*d[5mC]*dA*dA*d[5mC]*kA*kT*k[5mC]; antisense) [compound 799572]", "% inhibition of SMAD7 mRNA expression, %": 0}
{"SUBSTANCE": "790636 (kA*kG*k[5mC]*dA*dT*d[5mC]*dT*dG*dG*dA*d[5mC]*dA*dG*kT*k[5mC]*kA; antisense) [compound 790636]", "% inhibition of SMAD7 mRNA expression, %": 89}
{"SUBSTANCE": "790616 (k[5mC]*kT*kA*dA*dA*dT*dT*dT*d[5mC]*d[5mC]*dA*dA*dT*kG*kA*kG; antisense) [compound 790616]", "% inhibition of SMAD7 mRNA expression, %": 0}
{"SUBSTANCE": "799118 (antisense kA*kG*kA*dG*d[5mC]*dT*dT*dA*dA*d[5mC]*dA*d[5mC]*dA*k[5mC]*kA*kG) [compound 799118]", "% inhibition of SMAD7 mRNA expression, %": 0}
{"SUBSTANCE": "799964 (antisense k[5mC]*k[5mC]*k[5mC]*d[5mC]*dT*dT*dA*dG*d[5mC]*dG*d[5mC]*dA*dT*kT*k[5mC]*kT) [compound 799964]", "% inhibition of SMAD7 mRNA expression, %": 4}
{"SUBSTANCE": "790666 (kT*kA*kA*dT*dT*dT*dA*dT*dG*dA*d[5mC]*dA*dA*k[5mC]*kG*k[5mC]; antisense) [compound 790666]", "% inhibition of SMAD7 mRNA expression, %": 13}
{"SUBSTANCE": "799365 (k[5mC]*kT*k[5mC]*d[5mC]*dG*dA*dG*dT*dT*dA*dT*d[5mC]*d[5mC]*k[5mC]*k[5mC]*kA; antisense) [compound 799365]", "% inhibition of SMAD7 mRNA expression, %": 11}
{"SUBSTANCE": "799471 (antisense k[5mC]*kA*k[5mC]*dA*dG*dA*dA*dA*dA*dG*d[5mC]*dT*d[5mC]*k[5mC]*kG*k[5mC]) [compound 799471]", "% inhibition of SMAD7 mRNA expression, %": 0}
{"SUBSTANCE": "830053 (kG*kG*kG*dT*dG*dA*dG*dT*dA*dA*d[5mC]*d[5mC]*dA*kG*k[5mC]*kT; antisense) [compound 830053]", "% inhibition of SMAD7 mRNA expression, %": 29}
{"SUBSTANCE": "799364 (kT*k[5mC]*k[5mC]*dG*dA*dG*dT*dT*dA*dT*d[5mC]*d[5mC]*d[5mC]*k[5mC]*kA*kT; antisense) [compound 799364]", "% inhibition of SMAD7 mRNA expression, %": 39}
{"SUBSTANCE": "799589 (kA*kA*kT*dA*dT*d[5mC]*dT*dG*dT*dG*dT*d[5mC]*dT*kA*k[5mC]*kA; antisense) [compound 799589]", "% inhibition of SMAD7 mRNA expression, %": 15}
